Source of measurements: the supplement of paper PMC4166925

Tested on: PmTbr T-box DNA-binding domain (GST fusion);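 note: 200 nM protein in PBS on universal arrays averaged over duplicate arrays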
Sequence: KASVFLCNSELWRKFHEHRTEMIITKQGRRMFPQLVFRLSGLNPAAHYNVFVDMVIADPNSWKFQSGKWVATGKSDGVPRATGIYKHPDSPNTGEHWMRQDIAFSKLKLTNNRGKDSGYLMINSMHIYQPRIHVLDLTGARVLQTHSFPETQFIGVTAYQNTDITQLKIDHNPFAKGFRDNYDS
experiment: PBM E-score of 8-mer (E-score (dimensionless, -0.5 to 0.5)); higher = stronger binding preference
measurement.conditions: the construct has about 5 more residues each side
The full ranking holds about 33,000 sequences; the median of “E-score (dimensionless, -0.5 to 0.5)” is about -0.049, and the highest 2% start at about 0.37. Many of the other results were omitted from the sample, so the highest values are more common in it than they were.
Outcome label depends on PBM E-score of 8-mer relative to 0.03: at/above gives YES, below gives NO.

Exercise: Can CACACCGA be said to have PBM E-score of 8-mer at or above 0.03?
Key: YES

Exercise: Can ATGTCCGG be said to have PBM E-score of 8-mer at or above 0.03?
Key: NO

Exercise: Can ACAGAGGC be said to have PBM E-score of 8-mer at or above 0.03?
Key: YES

Exercise: Can AACACCGA be said to have PBM E-score of 8-mer at or above 0.03?
Key: YES

Exercise: Can CACCTGTA be said to have PBM E-score of 8-mer at or above 0.03?
Key: YES

Next item in the queue.
Exercise: Can ATAGACTG be said to have PBM E-score of 8-mer at or above 0.03?
Key: NO

----------
Test system: PmTbr T-box DNA-binding domain (GST fusion);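 note: 200 nM protein in PBS on universal arrays averaged over duplicate arrays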
Sequence: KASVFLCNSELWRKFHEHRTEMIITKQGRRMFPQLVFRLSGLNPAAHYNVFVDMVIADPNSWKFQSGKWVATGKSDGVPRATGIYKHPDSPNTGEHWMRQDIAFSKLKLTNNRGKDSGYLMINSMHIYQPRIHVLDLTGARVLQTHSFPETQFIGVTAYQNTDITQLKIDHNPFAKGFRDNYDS
experiment: PBM E-score of 8-mer (E-score (dimensionless, -0.5 to 0.5)); higher = stronger binding preference
measurement.conditions: target sequence: T-box / the construct has about 5 more residues each side
The full ranking holds about 33,000 sequences; the median of “E-score (dimensionless, -0.5 to 0.5)” is about -0.049, and the highest 2% start at about 0.37. For the sample, the highest values were picked, then their nearest neighbours and some sequences at random.
Outcome label depends on PBM E-score of 8-mer relative to 0.01: at/above gives class 1, below gives class 0.

Exercise: Can GCGTCACA be said to have PBM E-score of 8-mer at or above 0.01?
Key: class 1

Exercise: Can GAAGTCTC be said to have PBM E-score of 8-mer at or above 0.01?
Key: class 1

Exercise: Can ATGGCACA be said to have PBM E-score of 8-mer at or above 0.01?
Key: class 1

Exercise: Can CGCGAAAA be said to have PBM E-score of 8-mer at or above 0.01?
Key: class 1

Exercise: Can CTAAGTGA be said to have PBM E-score of 8-mer at or above 0.01?
Key: class 1

Exercise: Can AACACATC be said to have PBM E-score of 8-mer at or above 0.01?
Key: class 1

Further cases:
Exercise: Can GACCCTTA be said to have PBM E-score of 8-mer at or above 0.01?
Key: class 0

Exercise: Can GTGATTGA be said to have PBM E-score of 8-mer at or above 0.01?
Key: class 1

Exercise: Can CTGGCACA be said to have PBM E-score of 8-mer at or above 0.01?
Key: class 1

Exercise: Can CCTCGATC be said to have PBM E-score of 8-mer at or above 0.01?
Key: class 1

Exercise: Can CGCGTGAG be said to have PBM E-score of 8-mer at or above 0.01?
Key: class 1

----------
Test system: PmTbr T-box DNA-binding domain (GST fusion);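 note: 200 nM protein in PBS on universal arrays averaged over duplicate arrays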
Sequence: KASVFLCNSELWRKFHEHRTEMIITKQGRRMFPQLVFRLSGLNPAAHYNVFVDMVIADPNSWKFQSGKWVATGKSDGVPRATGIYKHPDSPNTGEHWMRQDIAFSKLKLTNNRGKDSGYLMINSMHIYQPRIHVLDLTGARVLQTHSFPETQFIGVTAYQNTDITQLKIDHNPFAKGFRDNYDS
experiment: PBM E-score of 8-mer (E-score (dimensionless, -0.5 to 0.5)); higher = stronger binding preference
measurement.conditions: target sequence: T-box / the construct has about 5 more residues each side
In all, about 33,000 sequences were measured (“E-score (dimensionless, -0.5 to 0.5)”: median about -0.049, highest 2% from about 0.37 on). The list comes from a sample in which the highest values are over-represented; it also holds close analogues and randomly drawn sequences.
Outcome label depends on PBM E-score of 8-mer relative to 0.2: at/above gives condition met, below gives condition not met.

Solved cases (8 shown):
Exercise: Can GTGTTATA be said to have PBM E-score of 8-mer at or above 0.2?
Key: condition met

Exercise: Can ACATATCC be said to have PBM E-score of 8-mer at or above 0.2?
Key: condition not met

Exercise: Can ACTTGTTG be said to have PBM E-score of 8-mer at or above 0.2?
Key: condition met

Exercise: Can TATGGTGA be said to have PBM E-score of 8-mer at or above 0.2?
Key: condition not met

Exercise: Can GGGTGGCA be said to have PBM E-score of 8-mer at or above 0.2?
Key: condition met

Exercise: Can AGAGCAAA be said to have PBM E-score of 8-mer at or above 0.2?
Key: condition not met

Exercise: Can ATCATAGC be said to have PBM E-score of 8-mer at or above 0.2?
Key: condition not met

Exercise: Can AGTGTTGA be said to have PBM E-score of 8-mer at or above 0.2?
Key: condition met

Further cases:
Exercise: Can GATAGCCA be said to have PBM E-score of 8-mer at or above 0.2?
Key: condition not met

Exercise: Can CTAGCACA be said to have PBM E-score of 8-mer at or above 0.2?
Key: condition met

Exercise: Can AGCTAACG be said to have PBM E-score of 8-mer at or above 0.2?
Key: condition not met

Exercise: Can AGGTGGCA be said to have PBM E-score of 8-mer at or above 0.2?
Key: condition met

----------
System: PmTbr T-box DNA-binding domain (GST fusion);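 note: 200 nM protein in PBS on universal arrays averaged over duplicate arrays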
Sequence: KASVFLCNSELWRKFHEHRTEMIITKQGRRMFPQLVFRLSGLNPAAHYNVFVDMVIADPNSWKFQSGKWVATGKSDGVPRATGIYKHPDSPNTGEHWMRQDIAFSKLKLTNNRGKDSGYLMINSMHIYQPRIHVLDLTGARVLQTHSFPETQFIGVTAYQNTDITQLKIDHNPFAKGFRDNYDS
experiment: PBM E-score of 8-mer (E-score (dimensionless, -0.5 to 0.5)); higher = stronger binding preference
measurement.conditions: target sequence: T-box / the construct has about 5 more residues each side
Over roughly 33,000 sequences, “E-score (dimensionless, -0.5 to 0.5)” has its median near -0.049; the highest 2% begin near 0.37. The sample holds the highest values, similar sequences and a random draw of the others, so the mix is not that of the screen.
endpoint.label: PBM E-score of 8-mer
# answer = number (no unit)

Use these answered entries as a reference point.
Exercise: Param item = AAAGACTC ; retrieve measured PBM E-score of 8-mer.
Key: -0.156

Exercise: Param item = CCTTCGCG ; retrieve measured PBM E-score of 8-mer.
Key: 0.257

Further cases:
Exercise: Param item = CATCACAA ; retrieve measured PBM E-score of 8-mer.
Key: 0.179

----------
PBM E-score of 8-mer values for the sequences below.
Tested on: PmTbr T-box DNA-binding domain (GST fusion);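 note: 200 nM protein in PBS on universal arrays averaged over duplicate arrays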
Sequence: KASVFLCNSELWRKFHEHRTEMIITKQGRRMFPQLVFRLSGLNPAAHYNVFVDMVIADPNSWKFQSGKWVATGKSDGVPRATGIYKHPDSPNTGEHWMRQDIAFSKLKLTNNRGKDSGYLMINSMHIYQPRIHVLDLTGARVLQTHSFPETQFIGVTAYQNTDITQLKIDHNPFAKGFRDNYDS
experiment: PBM E-score of 8-mer (E-score (dimensionless, -0.5 to 0.5)); Tbr is Tbrain of the sea star Patiria miniata (Pm) or the sea urchin Strongylocentrotus purpuratus (Sp); higher = stronger binding preference
measurement.conditions: target sequence: T-box / the construct has about 5 more residues each side
The full ranking holds about 33,000 sequences; the median of “E-score (dimensionless, -0.5 to 0.5)” is about -0.049, and the highest 2% start at about 0.37. The list comes from a sample in which the highest values are over-represented; it also holds close analogues and randomly drawn sequences.

Use these answered entries as a reference point.
Exercise: Param item = TGCCATAA ; retrieve measured PBM E-score of 8-mer.
Key: 0.0817

Exercise: Param item = ACGCAATC ; retrieve measured PBM E-score of 8-mer.
Key: -0.12

Exercise: Param item = CTGACACC ; retrieve measured PBM E-score of 8-mer.
Key: 0.464

Exercise: Param item = AGCCATAG ; retrieve measured PBM E-score of 8-mer.
Key: -0.0194

Exercise: Param item = GACAACAA ; retrieve measured PBM E-score of 8-mer.
Key: 0.194

Further cases:
Exercise: Param item = AGAAAGCC ; retrieve measured PBM E-score of 8-mer.
Key: -0.195

Exercise: Param item = ATGCTGCC ; retrieve measured PBM E-score of 8-mer.
Key: -0.293

Exercise: Param item = GGTGTCAC ; retrieve measured PBM E-score of 8-mer.
Key: 0.481

Exercise: Param item = ACGACACG ; retrieve measured PBM E-score of 8-mer.
Key: 0.225

Exercise: Param item = CATTAGAC ; retrieve measured PBM E-score of 8-mer.
Key: -0.177

Exercise: Param item = GCTGTCAC ; retrieve measured PBM E-score of 8-mer.
Key: 0.362

Exercise: Param item = AAGCGTGT ; retrieve measured PBM E-score of 8-mer.
Key: 0.235
